In this section, each of the molecules is paired with its reported pIC50.
tested on: human cervix carcinoma (HeLa) cells; assay: Cytostatic activity, HeLa cell proliferation; type: cell-based; settings: mean ± SD of three experiments; highest concentration tested 250 µM; 4 days; read-out: Toxicity (IC50) HeLa
Remember the convention: pIC50 equals -log10 of concentration in molar.

CCCCCc1ccc(C(=O)NCCCNC(=O)C2NC(=O)C3NC(=O)C(NC(=O)C4NC(=O)C(CC(N)=O)NC(=O)C(NC(=O)C(CC(C)C)NC)C(O)c5ccc(c(Cl)c5)Oc5cc4cc(c5OC4OC(CO)C(O)C(O)C4OC4CC(C)(N)C(O)C(C)O4)Oc4ccc(cc4Cl)C3O)c3ccc(O)c(c3)-c3c(O)cc(O)cc32)cc1 (stereo not shown)    4.00
CN[C@H](CC(C)C)C(=O)N[C@H]1C(=O)N[C@@H](CC(N)=O)C(=O)N[C@H]2C(=O)N[C@H]3C(=O)N[C@H](C(=O)N[C@H](C(=O)NCC(=O)Nc4cc(C)cc(C)c4)c4cc(O)cc(O)c4-c4cc3ccc4O)[C@H](O)c3ccc(c(Cl)c3)Oc3cc2cc(c3O[C@@H]2O[C@H](CO)[C@@H](O)[C@H](O)[C@H]2O[C@H]2C[C@](C)(N)[C@H](O)[C@H](C)O2)Oc2ccc(cc2Cl)[C@H]1O    4.06
CCCCCCCc1ccc(C(=O)NCCCNC(=O)C2NC(=O)C3NC(=O)C(NC(=O)C4NC(=O)C(CC(N)=O)NC(=O)C(NC(=O)C(CC(C)C)NC)C(O)c5ccc(c(Cl)c5)Oc5cc4cc(c5OC4OC(CO)C(O)C(O)C4OC4CC(C)(N)C(O)C(C)O4)Oc4ccc(cc4Cl)C3O)c3ccc(O)c(c3)-c3c(O)cc(O)cc32)cc1 (stereo not shown)    4.07
CCCCCCc1ccc(NC(=O)CNC(=O)[C@H]2NC(=O)[C@H]3NC(=O)[C@H](NC(=O)[C@@H]4NC(=O)[C@H](CC(N)=O)NC(=O)[C@H](NC(=O)[C@@H](CC(C)C)NC)[C@H](O)c5ccc(c(Cl)c5)Oc5cc4cc(c5O[C@@H]4O[C@H](CO)[C@@H](O)[C@H](O)[C@H]4O[C@H]4C[C@](C)(N)[C@H](O)[C@H](C)O4)Oc4ccc(cc4Cl)[C@H]3O)c3ccc(O)c(c3)-c3c(O)cc(O)cc32)cc1    4.08
CN[C@H](CC(C)C)C(=O)N[C@H]1C(=O)N[C@@H](CC(N)=O)C(=O)N[C@H]2C(=O)N[C@H]3C(=O)N[C@H](C(=O)N[C@H](C(=O)NCC(=O)Nc4ccc(NS(=O)(=O)c5ccc(Cl)cc5Cl)cc4)c4cc(O)cc(O)c4-c4cc3ccc4O)[C@H](O)c3ccc(c(Cl)c3)Oc3cc2cc(c3O[C@@H]2O[C@H](CO)[C@@H](O)[C@H](O)[C@H]2O[C@H]2C[C@](C)(N)[C@H](O)[C@H](C)O2)Oc2ccc(cc2Cl)[C@H]1O    4.06

Q) Please look up its pIC50: CN[C@H](CC(C)C)C(=O)N[C@H]1C(=O)N[C@@H](CC(N)=O)C(=O)N[C@H]2C(=O)N[C@H]3C(=O)N[C@H](C(=O)N[C@H](C(=O)NCCNC(=O)/C=C/c4ccc(F)cc4)c4cc(O)cc(O)c4-c4cc3ccc4O)[C@H](O)c3ccc(c(Cl)c3)Oc3cc2cc(c3O[C@@H]2O[C@H](CO)[C@@H](O)[C@H](O)[C@H]2O[C@H]2C[C@](C)(N)[C@H](O)[C@H](C)O2)Oc2ccc(cc2Cl)[C@H]1O
A) 4.12

Q) Look up pIC50 for this molecule: CN[C@H](CC(C)C)C(=O)N[C@H]1C(=O)N[C@@H](CC(N)=O)C(=O)N[C@H]2C(=O)N[C@H]3C(=O)N[C@H](C(=O)N[C@H](C(=O)NCCCNC(=O)c4ccc5ccccc5c4)c4cc(O)cc(O)c4-c4cc3ccc4O)[C@H](O)c3ccc(c(Cl)c3)Oc3cc2cc(c3O[C@@H]2O[C@H](CO)[C@@H](O)[C@H](O)[C@H]2O[C@H]2C[C@](C)(N)[C@H](O)[C@H](C)O2)Oc2ccc(cc2Cl)[C@H]1O
A) 4.17

Q) May I ask what pIC50 has been recorded for C#Cc1ccc2cc(C(=O)NCCCNC(=O)[C@H]3NC(=O)[C@H]4NC(=O)[C@H](NC(=O)[C@@H]5NC(=O)[C@H](CC(N)=O)NC(=O)[C@H](NC(=O)[C@@H](CC(C)C)NC)[C@H](O)c6ccc(c(Cl)c6)Oc6cc5cc(c6O[C@@H]5O[C@H](CO)[C@@H](O)[C@H](O)[C@H]5O[C@H]5C[C@](C)(N)[C@H](O)[C@H](C)O5)Oc5ccc(cc5Cl)[C@H]4O)c4ccc(O)c(c4)-c4c(O)cc(O)cc43)ccc2c1 ?
A) 4.12
